Data provenance is patent US20240270821A1.

Listed next: entries and their corresponding cAMP Rel EC50, nM (in the presence of 1% HSA).
Tested on: human glucagon receptor (human) (UniProt P47871)
Sequence (P47871 26-477): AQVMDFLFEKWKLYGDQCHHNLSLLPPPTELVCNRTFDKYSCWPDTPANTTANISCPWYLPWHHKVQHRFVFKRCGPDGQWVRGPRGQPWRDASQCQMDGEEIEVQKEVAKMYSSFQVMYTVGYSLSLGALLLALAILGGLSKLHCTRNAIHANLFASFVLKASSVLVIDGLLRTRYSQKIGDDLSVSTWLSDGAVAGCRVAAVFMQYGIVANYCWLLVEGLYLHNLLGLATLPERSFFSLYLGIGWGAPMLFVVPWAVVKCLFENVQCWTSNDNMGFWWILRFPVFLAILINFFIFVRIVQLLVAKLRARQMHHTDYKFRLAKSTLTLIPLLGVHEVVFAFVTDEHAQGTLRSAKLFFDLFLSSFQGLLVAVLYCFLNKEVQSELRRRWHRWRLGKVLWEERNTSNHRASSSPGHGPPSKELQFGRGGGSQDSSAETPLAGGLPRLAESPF
Experiment: cell-based or functional assay
Readout label: cAMP Rel EC50, nM (in the presence of 1% HSA) (nM)

Binder	Reported result
YXQGTFTSDFSXXLDKKAQXAFIEYLLEGGPSSGAPPPGGSE (synthetic construct; SITE 2: note = 2-Aminoisobutyric Acid; SITE 12: note = L-ornithine; SITE 13: note = alpha-methyl-leucine; SITE 17: note = Lysine is chemically modified through conjugation of the epsilon-amino group of the Lysine side chain with (2-[2-(2-Amino-ethoxy)-ethoxy]-acetyl)-(gamma-Glu)) [Example 65]	808
YXQGTFTSDFSXXLDKKAQXAFIEWLLEGGPSSGAPPPEGS (synthetic construct; SITE 2: note = 2-Aminoisobutyric Acid; SITE 12: note = L-ornithine; SITE 13: note = alpha-methyl-leucine; SITE 17: note = Lysine is chemically modified through conjugation of the epsilon-amino group of the Lysine side chain with (2-[2-(2-Amino-ethoxy)-ethoxy]-acetyl)-(gamma-Glu)) [Example 121]	442
YXQGTFTSDFSKXLDKKAQXAFIEYLLEGGESSGAPPPSGS (synthetic construct; SITE 2: note = 2-Aminoisobutyric Acid; SITE 13: note = alpha-methyl-leucine; SITE 17: note = Lysine is chemically modified through conjugation of the epsilon-amino group of the Lysine side chain with (2-[2-(2-Amino-ethoxy)-ethoxy]-acetyl)-(gamma-Glu)-CO-(CH2) 16-CO2H; SITE 20: n) [Example 146]	463
YXQGTFTSDFSXXLDKKAQXAFIEWLLEGGHSSGAPPPSGE (synthetic construct; SITE 2: note = 2-Aminoisobutyric Acid; SITE 12: note = L-ornithine; SITE 13: note = alpha-methyl-leucine; SITE 17: note = Lysine is chemically modified through conjugation of the epsilon-amino group of the Lysine side chain with (2-[2-(2-Amino-ethoxy)-ethoxy]-acetyl)-(gamma-Glu)) [Example 122]	548
YXQGTFTSDFSXXLDKKAQXAFIEWLLAGGPSSGEPPPSGE (synthetic construct; SITE 2: note = 2-Aminoisobutyric Acid; SITE 12: note = L-ornithine; SITE 13: note = alpha-methyl-leucine; SITE 17: note = Lysine is chemically modified through conjugation of the epsilon-amino group of the Lysine side chain with (2-[2-(2-Amino-ethoxy)-ethoxy]-acetyl)-(gamma-Glu)) [Example 103]	2590
